Overview of recorded GI50 for various compounds
system: 786-0; experiment: NCI tumour cell line growth inhibition, 48 h
Activity calls are given as the source filed them. Rule as the data show it: active = GI50 up to about 1.1 µM and inactive = higher.

Worked cases, GI50 given:
>  <compound>
COC(=O)C1(SC)C2CCC3C2CCC31 (stereo unspecified)

>  <tested.system>
786-0

>  <endpoint.result>
> 100 µM (inactive)

$$$$
>  <compound>
[O-][S+]1c2ccccc2N=C(c2cccc3ccccc23)CC1c1cccc2ccccc12 (stereo unspecified)

>  <tested.system>
786-0

>  <endpoint.result>
24.5 µM (inactive)

$$$$
>  <compound>
COc1cccc2ccc(C(=O)c3ccccc3)nc12

>  <tested.system>
786-0

>  <endpoint.result>
> 100 µM (inactive)

$$$$
>  <compound>
Cc1cc(S(=O)(=O)Nc2nc(N)n(-c3ccccn3)n2)c(S)cc1Cl

>  <tested.system>
786-0

>  <endpoint.result>
> 100 µM (inactive)

$$$$
>  <compound>
COC(=O)CCC(=O)NC1=C(Nc2ccccc2)C(=O)c2ccccc2C1=O

>  <tested.system>
786-0

>  <endpoint.result>
12.3 µM (inactive)

$$$$

Problem: Entry Cc1cc2c(CC(=O)O)n[nH]c2c(C(=O)O)c1C , system 786-0: what GI50 was measured?
Result: > 100 µM (inactive)

Problem: Now try COC(=O)c1c(C#N)c(N)nc2c1CCC2 .
Result: > 100 µM (inactive)

Problem: Same question, N=c1oc2ccccc2cc1C(=O)NC12CC3CC(CC(C3)C1)C2 this time
Result: 2.88 µM (inactive)

Problem: Could you do the same for O=C(Nn1c(-c2ccccc2)nc2ccccc2c1=O)c1ccc([N+](=O)[O-])cc1 , please?
Result: > 100 µM (inactive)

Problem: Do the same for O=S(=O)(O)c1ccc2c(/N=N\c3ccc(F)cc3)c(O)c(S(=O)(=O)O)cc2c1 please
Result: > 100 µM (inactive)

Problem: # iterate: COC(=O)/C(=N\Nc1nc(S)nn1N)C(C#N)c1ccccc1 (stereo unspecified)
Result: > 100 µM (inactive)

* * *

system: SF-539; test: NCI tumour cell line growth inhibition, 48 h
Calls of active or inactive are those of the source. No stated cut-off is given here; in the data, active = GI50 up to about 1.1 µM and inactive = higher.
Classes to choose from: active, inactive

Solved cases below.
>  <molecule>
CC(=O)NNc1nc(C)c(C(=O)/C=C/C=C/c2ccccc2)s1

>  <label>
inactive

$$$$
>  <molecule>
CC1=C(CO)C(=O)O[C@@H]([C@@H](C)[C@H]2CC[C@H]3[C@@H]4C[C@H]5O[C@]56[C@@H](O)C=CC(=O)[C@]6(C)[C@H]4CC[C@]23C)C1 [WITHAFERIN A]

>  <label>
inactive

$$$$
>  <molecule>
O=C1C=C(O)c2nc(O)ccc2C1=O

>  <label>
inactive

$$$$
>  <molecule>
COc1cc(C2c3cc4c(cc3[C@@H](Nc3ccc(F)cc3)C3CO[C@@H](O)[C@H]23)OCO4)cc(OC)c1O (stereo partly specified)

>  <label>
active

$$$$
>  <molecule>
O=c1c2ccccc2oc2nccnc12

>  <label>
inactive

$$$$

Problem: So what was the verdict on COc1cc(CNc2nc3c(NC(C)=O)cc(C(F)(F)F)cc3nc2-c2ccccc2)cc(OC)c1OC in this test?
Result: inactive

Problem: # iterate: CC(=O)NCc1c(C(N)=O)ncn1Cc1ccccc1
Result: inactive

Problem: Proceed to CC(=N/NC(=S)Nc1c(C)n(C)n(-c2ccccc2)c1=O)/C(C)=N\NC(=S)Nc1c(C)n(C)n(-c2ccccc2)c1=O
Result: inactive

Problem: Check COC(=O)C1=CCS(=O)(=O)C1 too.
Result: inactive

Problem: Follow-up entry: O=C(CC1(O)C(=O)Nc2c(Cl)ccc(Cl)c21)c1ccc(Cl)cc1Cl (stereo unspecified)
Result: inactive

Problem: Now try CC1(C)OC[C@@H](C[C@H](O)COCc2ccccc2)O1 .
Result: inactive

Problem: Input CC(=O)Oc1ccc(O)c2c1CCCC2
Result: inactive

This collection of values is drawn from ChEMBL document CHEMBL1201862.
